Reported Percent Control is given for each of the following compounds.
# Tested on: PLK1
# run parameters: Compound Concentration (nM):1000;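 further: KINOMEscan scanMAX binding as percent activity remaining versus control; lower means stronger binding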
experimental readout: Percent Control (%)

>>> readout_number("Nc1ncnc2occ(-c3ccc(NC(=O)Nc4cc(C(F)(F)F)ccc4F)cc3)c12 [GW770249X]")
100
>>> readout_number("CC1=C(C(=O)Nc2ccc3[nH]ncc3c2)C(c2ccc3ccccc3c2)CC(=O)N1 (centres unmarked) [GSK270822A]")
73
>>> readout_number("O=C(Nc1n[nH]c2nc(-c3ccc(O)cc3)c(Br)cc12)C1CC1 [SB-725317]")
100
>>> readout_number("COc1cc(N2CCN(C(C)C)CC2)ccc1Nc1nc(Nc2ccc(F)cc2C(=O)NC[C@@H](O)CO)c2cc[nH]c2n1 [GSK1392956A]")
6.3
>>> readout_number("COc1ccc2cc(-c3c(-c4ccncc4)nc(-c4ccc(S(C)(=O)=O)cc4C)n3C)ccc2c1 [SB-633825]")
63
>>> readout_number("NS(=O)(=O)c1ccc(N/N=C2\\C(=O)Nc3ccc(C(=O)NCc4ccncc4)cc32)cc1 [GW300657X]")
74
>>> readout_number("COc1cccc(-n2ncc3c(N/N=C/c4ccncc4)ncnc32)c1 [GW784752X]")
88
>>> readout_number("CN(C)CCNC(=O)Nc1ccc(N(C)c2ccnc(Nc3ccc(CS(C)(=O)=O)cc3)n2)cc1.Cl [GW830900A]")
86

* * *

# Test system: AMPK-alpha2
# Construct: gene PRKAA2
# run parameters: Compound Concentration (nM):1000
experimental readout: Percent Control (%)

>>> readout_number("NS(=O)(=O)c1ccc(N/N=C2\\C(=O)Nc3ccc(Cl)cc32)cc1 [GW280670X]")
88
>>> readout_number("COc1cc(C=NNc2ncnc3c2cnn3-c2ccccc2)ccc1O [GW513184X]")
100
>>> readout_number("COc1cc2ncn(-c3cc(O[C@H](C)c4ccccc4Cl)c(C(N)=O)s3)c2cc1OC [GSK237701A]")
100
>>> readout_number("NS(=O)(=O)c1ccc(N/N=C2\\C(=O)Nc3ccc(C(=O)NCc4ccncc4)cc32)cc1 [GW300657X]")
83
>>> readout_number("CCn1c(-c2nonc2N)nc2c(C#CC(C)(C)O)nc(OCCNC)cc21.Cl")
100
>>> readout_number("COc1cc(C)c(N(C)C(=O)CN(C)C)cc1Nc1nc(Nc2cccc(F)c2C(N)=O)c2cc[nH]c2n1")
100
>>> readout_number("COc1cc2ncnc(Nc3ccc4c(cnn4Cc4ccccc4)c3)c2cc1OC.Cl [GW282449A]")
100
>>> readout_number("COc1ccc(COc2ccc(Cc3cnc(N)nc3N)cc2OC)cc1 [GW632580X]")
99

* * *

# System: FGFR3(G697C)
# run parameters: Compound Concentration (nM):1000
experimental readout: Percent Control (%)

>>> readout_number("NS(=O)(=O)c1ccc(N/N=C2\\C(=O)Nc3ccc(C(=O)NCCc4c[nH]cn4)cc32)cc1 [GW300660X]")
100
>>> readout_number("Cl.O=C(Nc1ccc(Oc2ccc3[nH]c(NC(=O)c4ccccc4)nc3c2)cc1)Nc1cc(C(F)(F)F)ccc1F [GW709042A]")
100
>>> readout_number("COc1ccc(COc2ccc(Cc3cnc(N)nc3N)cc2OC)cc1 [GW632580X]")
89
>>> readout_number("Cc1cc(O)cc(C)c1/C=C/c1cncc(C(N)=O)c1 [GW435821X]")
100
>>> readout_number("COC(=O)Nc1nc2ccc(Oc3ccc(NC(=O)Nc4cc(C(F)(F)F)ccc4F)cc3)cc2s1.Cl [GW693917A]")
59
>>> readout_number("COc1cc(N2CCN(C(C)C)CC2)ccc1Nc1nc(Nc2ccc(F)cc2C(=O)NC[C@@H](O)CO)c2cc[nH]c2n1 [GSK1392956A]")
98
>>> readout_number("COc1cccc(-c2c[nH]c3c(N/N=C/c4ccncc4)ncnc23)c1 [GW814408X]")
100
>>> readout_number("COc1cc(/C=N/Nc2ncnc3[nH]ncc23)ccc1O [GW578748X]")
88
>>> readout_number("CC1=C(C(=O)Nc2ccc3[nH]ncc3c2)C(c2ccc(Cl)c(Cl)c2)CC(=O)N1 (stereo not drawn) [GSK299115A]")
94
